- Tested system: T1, GFP-9S library array, motif 4 ND N98W;D124M (synthetic construct, N98W;D124M)
- T1 chain: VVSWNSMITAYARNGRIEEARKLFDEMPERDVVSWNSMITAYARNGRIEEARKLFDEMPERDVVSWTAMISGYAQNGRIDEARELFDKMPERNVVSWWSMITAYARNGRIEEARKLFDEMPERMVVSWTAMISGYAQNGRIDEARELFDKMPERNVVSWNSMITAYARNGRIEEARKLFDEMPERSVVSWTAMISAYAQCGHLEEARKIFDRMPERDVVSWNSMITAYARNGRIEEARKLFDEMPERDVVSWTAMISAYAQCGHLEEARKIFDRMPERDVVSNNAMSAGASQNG
- Assay summary: high-throughput RNA pulldown from lysate on Ni-NTA beads; HRP: 50 mM Tris pH 8, 150 mM NaCl, 1 mM beta-mercaptoethanol, 50 ug/ml BSA, 3 ug/ml yeast RNA, 0.5% heparin; ITC and FP: Tris pH 8, 200 mM KCl, 5% glycerol; MST: 50 mM Tris pH 8, 200 mM NaCl, 1 mM DTT, BSA, heparin, 0.05% Tween 20
- Settings: tags: N-terminal His-eGFP; label: 5' Cy5
pKd: −log10 of the molar value.
Recorded pKd by entry

{"Binder": "AUUAGACGUGA (ssRNA) [Cy5-rpoA-G]", "pKd": 6.99}
{"Binder": "AUUACACGUGA (ssRNA) [Cy5-rpoA]", "pKd": 7.02}
